- System: NCI-H23 lung
- assay-notes: NCI tumour cell line growth inhibition, 48 h
result-type: TGI (µM)
Answer format: numeric, µM implied, no suffix.

Value of TGI reported for the molecule `NC(=NCCCC1(c2ccccc2)CCCC1)Nc1ccc(Cl)cc1` is 3.35

For this molecule ( `Cc1ccccc1N=CN(C)C` ), measured TGI is 61.8

Consider `Cn1cc(-c2csc(-c3cn(C)c4ccc(Br)cc34)n2)c2cnccc21` . Its measured TGI is 3.65

Please fill in: TGI reported for `O=Nc1ccc(O)c2ccccc12` = 4.17

get_value(item= CCN(CC)CCCC(C)Nc1cc(-c2ccc(C(F)(F)F)cc2)c(C#N)c2nc3ccccc3n12 (stereo not given) , readout=TGI) returns 4.22

Reported TGI ( `COC(=O)[C@@]1(Cc2ccccc2)[C@H]2c3cc(C(=O)N4CCCC4)n(Cc4ccc(OC)c(OC)c4)c3C[C@H]2CN1C(=O)c1ccccc1` ) = 36.1

Looking up `CS/C(C#N)=C(\C#N)SC` , I see its TGI listed as 79.4

For reference, reported TGI for `C=CC(=O)N1C/C(=C\c2ccccc2)C(=O)/C(=C/c2ccccc2)C1` stands at 5.43

Please fill in: TGI reported for `CCN(CC)CC.CCOc1ccc(NC(=O)N=C=[N-])cc1.[CH-]1CCCCC1.[CH-]1CCCCC1.[CH-]1CCCCC1.[Cl-].[Sn+4]` = 0.0882

Field TGI (entry `O=Cc1ccc(-c2ccc(-c3nc4ccccc4[nH]3)cc2)s1` ) reads 35

The molecule identified as `COc1cc2c3c(c4ccc(OC)c(OC)c4c2cc1OC)CN1CCC[C@@H]1C3` registered its TGI at 0.637

Entry under test: `CC(C)CCSC1=CC(=O)c2ccccc2C1=O` . Its TGI was 34.7

---

- Tested on: SK-MEL-5 melanoma
- assay-notes: NCI tumour cell line growth inhibition, 48 h
Where a SMILES comes first, the peptide text is derived from it. Bridges are numbered along the chain shown (N, C = ends). [ ]: non-standard residue; d: D form. The star is where a group is joined. PhAc = O=C(Cc1ccccc1)*
result-type: TGI

What the record says about `Cc1cc(=O)oc2cc(SC(=O)N(C)C)ccc12` : TGI is > 100 µM

// field: TGI; key: `O=C(CSc1nnc(Cc2ccccc2)o1)Nc1cccc(Cl)c1` ; value = > 100 µM

Query `COC(=O)[C@H]1C(=O)[C@@]2(C)[C@H]([C@H](OC(=O)c3ccccc3)[C@]3(O)C[C@H](OC(=O)[C@H](O)[C@@H](NC(=O)c4ccc(F)cc4)c4ccccc4)C(C)=C1C3(C)C)[C@]1(OC(C)=O)CO[C@@H]1C[C@@H]2O` yields TGI of > 9.79 µM

Data point: `Cc1ccc(/C=N/Nc2nc3ccccc3s2)s1` ; TGI = > 100 µM

Just so you know, measured TGI for `O=c1[nH]cc(/C=N\Nc2ccccc2)c(=O)[nH]1` came out at > 100 µM

// recorded TGI for `COc1cc2c(c(OC)c1O)-c1ccc(OC)c(=O)cc1[C@@H](NC(=O)C(F)(F)F)CC2` : 0.0668 µM

Just so you know, measured TGI for `O=C(CSc1nc2ccccc2nc1-c1ccccc1)Nc1ccc(Cl)cc1` came out at > 100 µM

Consider CC(N)C(=O)OCN1C(=O)C2C3C=CC(C2C1=O)C1C2C(=O)N(COC(=O)C(C)N)C(=O)C2C31 (stereo not given) . Its measured TGI is 34.1 µM

Measured TGI, `[O-]c1c[n+](CCCC[n+]2cc([O-])on2)no1` : > 100 µM

In plain terms, `CN(C)CCCNC(=O)c1cc(NC(=O)c2cc(NS(=O)(=O)c3ccc4c(c3)C(=O)c3ccccc3C4=O)cn2C)cn1C` has a documented TGI of > 100 µM

Entry O=C1OC2C(O)COC2(O)C1(O)C(C[N+](=O)[O-])c1ccc(Cl)cc1 (stereo not given) ; TGI = 21.6 µM

// field: TGI; key: `C=CC(=O)N1C/C(=C\c2ccccc2)C(=O)/C(=C/c2ccccc2)C1` ; value = 3.12 µM

In plain terms, `Cc1ccc(S(=O)(=O)Oc2ccc([N+](=O)[O-])cc2[N+](=O)[O-])cc1` has a documented TGI of 12.5 µM

In plain terms, `C/C(=C/c1ccccc1)CN(C(=O)/C=C\Sc1ccccc1)C(C)(C)C` has a documented TGI of > 100 µM

Summary for this molecule, O=C(Cc1ccccc1)N[C@@H]1COC(=O)[C@@H]2CCCN2C(=O)[C@@H]2CCCN2C1=O (PhAc-[dS]-Pro-Pro; ester 1-C) : TGI is > 100 µM
